molecular target: crcB motif RNA; settings: read-out: KD for fluoride binding; in-line probing

[
  {
    "molecule": "F [fluoride]",
    "Kd": "~50 µM"
  }
]
